Target: T1, IL-7 receptor (IL-7Rα/γc heterodimer) on primary human T cells (human, UniProt P16871 21-459; P31785 23-369)
T1 sequence (looked up) 1: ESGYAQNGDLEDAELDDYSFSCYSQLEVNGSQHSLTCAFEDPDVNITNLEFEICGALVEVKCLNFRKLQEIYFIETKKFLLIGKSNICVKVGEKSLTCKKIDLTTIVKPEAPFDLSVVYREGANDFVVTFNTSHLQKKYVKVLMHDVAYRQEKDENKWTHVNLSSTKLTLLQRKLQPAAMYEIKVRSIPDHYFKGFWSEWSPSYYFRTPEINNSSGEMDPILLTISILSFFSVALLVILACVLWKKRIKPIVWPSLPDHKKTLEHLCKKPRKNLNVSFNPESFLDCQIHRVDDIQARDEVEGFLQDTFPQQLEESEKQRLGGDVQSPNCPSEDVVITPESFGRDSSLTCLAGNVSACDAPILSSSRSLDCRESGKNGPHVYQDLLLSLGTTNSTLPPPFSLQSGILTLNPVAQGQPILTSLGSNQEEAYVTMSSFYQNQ
T1 sequence (looked up) 2: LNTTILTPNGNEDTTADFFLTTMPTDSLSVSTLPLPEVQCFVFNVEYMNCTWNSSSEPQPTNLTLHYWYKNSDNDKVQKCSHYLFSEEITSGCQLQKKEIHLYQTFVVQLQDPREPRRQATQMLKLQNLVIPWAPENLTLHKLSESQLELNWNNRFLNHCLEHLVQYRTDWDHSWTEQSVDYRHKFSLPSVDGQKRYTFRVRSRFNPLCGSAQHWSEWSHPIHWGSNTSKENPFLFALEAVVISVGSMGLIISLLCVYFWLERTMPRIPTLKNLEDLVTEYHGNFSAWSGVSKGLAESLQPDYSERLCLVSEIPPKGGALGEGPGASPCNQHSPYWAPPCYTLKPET
Assay: cell-based or functional assay
Bridges are numbered along the chain shown (N, C = ends). [ ]: non-standard residue; d: D form. glutaryl‑PEG9‑azide = glutaryl-PEG9-azide group on the N-terminal amine; hSer = N[C@@H](CCO)C(=O)O; Nle = CCCC[C@H](N)C(=O)O
MEASUREMENT_NAME: EC50 pSTAT5, CD4 Treg (nM)

INSERT INTO measurements (binder, unit_string, endpoint_result) VALUES
  ('CMP-201, synthetic IL-7 variant of Example 2V (ligand, disulfide 34-129, 47-141) {glutaryl‑PEG9‑azide}-DSDIEGKDGKQYESVL[Nle]VSIDQLLDS[Nle]KEIGSNCL[hSer]NEFNFFKRHICDANKEG[Nle]FLFRAARKLRQFLK[Nle]NSTGDF[hSer]LHLLKVSENTTILLNSTGQVKGRKPAALGEAQPTKSL[hSer]ENKSLKEQKKLNDLCFLKRLLQEIKTCWNKIL[Nle]GTKEH-NH2', 'nM', 4.45);

Data provenance: patent US20240424127A1
